Catalogue of abundance fitness readings, one per entry.
B1: KAT8 regulatory NSL complex subunit 2, residues 28 to 91; numbered along this chain, Q9H9L4 (parent)
chain: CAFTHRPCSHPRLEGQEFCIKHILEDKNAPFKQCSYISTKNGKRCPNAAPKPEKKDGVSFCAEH

- Variants of: B1
- assay.procedure: abundance fitness (aPCA) (normalised: wild type 0, dead -1); higher = more abundant; growth selection in yeast, the domain comes from the species named
- experimental.setup: Homo sapiens

Prompt line: Write down abundance fitness measured for item CAFTHRPCSHPRLEGQEFCIKHILEDKNAEFKQCSYISTKNGKRCPNAAPKPEKKDGVSFCAEH [P30E]
Response line: -0.251

Prompt line: Write down abundance fitness measured for item CAFTHRPCSHPRLEGQEFCIKHILEDKNAPFKQCSYISTDNGKRCPNAAPKPEKKDGVSFCAEH [K40D]
Response line: -0.14

Prompt line: Write down abundance fitness measured for item CAFGHRPCSHPRLEGQEFCIKHILEDKNAPFKQCSYISTKNGKRCPNAAPKPEKKDGVSFCAEH [T4G]
Response line: -0.394

Prompt line: Write down abundance fitness measured for item CAFTHSPCSHPRLEGQEFCIKHILEDKNAPFKQCSYISTKNGKRCPNAAPKPEKKDGVSFCAEH [R6S]
Response line: -0.055

Prompt line: Write down abundance fitness measured for item CAFTHRPCSHPRLEGQEFCIKHILEDKNAPFKQCSYISTKNGKRCPNAAPKREKKDGVSFCAEH [P52R]
Response line: -0.144
